Origin of the recorded values: the supplement of paper PMC11061612

- Tested on: LOU-NH91 (Squamous Cell Lung Carcinoma)
- assay.protocol: combination Emax (second highest fraction inhibited in the dose matrix, 72 h); higher = more inhibition; extreme values may be limits of the assay
Quick reference for combination Emax among some compounds
Please reply with the value in numeric form only.

Would you please look over these solved cases?
Data request: Can you look up combination Emax on LOU-NH91 (Squamous Cell Lung Carcinoma) for NC1(C(=O)N[C@@H](CCO)c2ccc(Cl)cc2)CCN(c2ncnc3[nH]ccc23)CC1 [Capivasertib] + CC(=O)c1c(C)c2cnc(Nc3ccc(N4CCNCC4)cn3)nc2n(C2CCCC2)c1=O [Palbociclib] (first compound max 10 µM, 7x7, partner max 10 µM) ?
Data returned: 0.5

Data request: Can you check Cn1cnc2c(F)c(Nc3ccc(Br)cc3Cl)c(C(=O)NOCCO)cc21 [Selumetinib] + C=CCn1c(=O)c2cnc(Nc3ccc(N4CCN(C)CC4)cc3)nc2n1-c1cccc(C(C)(C)O)n1 [AZD1775] (first compound max 10 µM, partner max 1 µM) next?
Data returned: 0.423

Data request: And CC(=O)Nc1cccc(-n2c(=O)n(C3CC3)c(=O)c3c(Nc4ccc(I)cc4F)n(C)c(=O)c(C)c32)c1 [Trametinib] + Cc1nc(-c2cn3c(n2)-c2ccc(-c4cnn(C(C)(C)C(N)=O)c4)cc2OCC3)n(C(C)C)n1 [Taselisib] (first compound max 1 µM, 7x7, partner max 10 µM) ?
Data returned: 0.672

Now for another entry.
Data request: Could you share what combination Emax was measured for Cc1cc2ncnn2cc1Nc1ncc2c(n1)n(C1CCOCC1)c(=O)n2C [AZD7648] + C=CCn1c(=O)c2cnc(Nc3ccc(N4CCN(C)CC4)cc3)nc2n1-c1cccc(C(C)(C)O)n1 [AZD1775] (first compound max 10 µM, partner max 1 µM) , tested on LOU-NH91 (Squamous Cell Lung Carcinoma)?
Data returned: 0.466

---

- Tested on: EW-13 (Ewing's Sarcoma)
- assay.protocol: Bliss excess, mean over the matrix (fraction); higher = more synergy
Binary classification by Bliss excess, with -0.03 as an inclusive lower bound for YES; all other cases are NO.

Example results:
Data request: Is it the case that Cn1cnc2c(F)c(Nc3ccc(Br)cc3Cl)c(C(=O)NOCCO)cc21 [Selumetinib] + C[C@@H]1COCCN1C2=NC(=NC(=C2)C3(CC3)[S@](=N)(=O)C)C4=C5C=CNC5=NC=C4 [AZD6738] (first compound max 10 µM, 7x7, partner max 10 µM) has Bliss excess reaching or exceeding -0.03?
Data returned: YES

Data request: Query CN(CCO)CC[C@H](CSc1ccccc1)Nc1ccc(S(=O)(=O)NC(=O)c2ccc(N3CCC([C@@H](O)c4ccccc4-c4ccc(Cl)cc4)CC3)cc2)cc1S(=O)(=O)C(F)(F)F [AZD4320] + Cn1cnc2c(F)c(Nc3ccc(Br)cc3Cl)c(C(=O)NOCCO)cc21 [Selumetinib] (first compound max 1 µM, 7x7, partner max 3 µM) next
Data returned: YES

Data request: Now try CC(=O)c1c(C)c2cnc(Nc3ccc(N4CCNCC4)cn3)nc2n(C2CCCC2)c1=O [Palbociclib] + Cn1cnc2c(F)c(Nc3ccc(Br)cc3Cl)c(C(=O)NOCCO)cc21 [Selumetinib] (first compound max 10 µM, 7x7, partner max 10 µM) .
Data returned: YES

New cases:
Data request: Would you say CN(CCO)CC[C@H](CSc1ccccc1)Nc1ccc(S(=O)(=O)NC(=O)c2ccc(N3CCC([C@@H](O)c4ccccc4-c4ccc(Cl)cc4)CC3)cc2)cc1S(=O)(=O)C(F)(F)F [AZD4320] + C1CN(CCC1(C(=O)N[C@@H](CCO)C2=CC=C(C=C2)Cl)N)C3=NC=NC4=C3C=CN4 [Capivasertib] (first compound max 1 µM, 7x7, partner max 3 µM) shows Bliss excess at minimum -0.03?
Data returned: NO

Data request: Lookup CN(C)CCCOc1ccc(-c2ccc3ncc4c(c3c2)n(C2CCOCC2)c(=O)n4C)cn1 [AZD0156] + CCN(CCO)CCCOc1ccc2c(Nc3cc(CC(=O)Nc4cccc(F)c4)[nH]n3)ncnc2c1 [AZD2811] (first compound max 1 µM, 7x7, partner max 1 µM)
Data returned: YES

Data request: Same lookup for CC1(C)CCC(CN2CCN(c3ccc(C(=O)NS(=O)(=O)c4ccc(NCC5CCOCC5)c([N+](=O)[O-])c4)c(Oc4cnc5[nH]ccc5c4)c3)CC2)=C(c2ccc(Cl)cc2)C1 [Venetoclax] + Cn1cnc2c(F)c(Nc3ccc(Br)cc3Cl)c(C(=O)NOCCO)cc21 [Selumetinib] (first compound max 1 µM, 7x7, partner max 3 µM) , please.
Data returned: NO

Data request: Same read-out for COc1cccc(OCCCN)c1-c1cc(Nc2cnc(C#N)cn2)n[nH]1 [Prexasertib] + CCc1c2c(nc3ccc(O)cc13)-c1cc3c(c(=O)n1C2)COC(=O)[C@]3(O)CC [SN-38] (first compound max 1 µM, 7x7, partner max 0.3 µM) ?
Data returned: NO

---

- Tested on: RPMI-7951 (Melanoma)
- assay.protocol: combination Emax (second highest fraction inhibited in the dose matrix, 72 h); higher = more inhibition; extreme values may be limits of the assay
attribute.measured: combination Emax
Please reply with the value in numeric form only.

Would you please look over these solved cases?
Data request: Which combination Emax is reported for this compound? Cc1c2c(nn1C)CSCc1cc(n(C)n1)CSc1cc(c3ccccc3c1)OCCCc1c(C(=O)O)n(C)c3c-2c(Cl)ccc13 [AZD5991] + C[C@@H](Nc1cc(F)cc(F)c1)c1cc(C(=O)N(C)C)cc2c(=O)cc(N3CCOCC3)oc12 [AZD8186] (first compound max 1 µM, 7x7, partner max 3 µM)
Data returned: 0.939

Data request: Okay, and Cc1c2c(nn1C)CSCc1cc(n(C)n1)CSc1cc(c3ccccc3c1)OCCCc1c(C(=O)O)n(C)c3c-2c(Cl)ccc13 [AZD5991] + C=CCn1c(=O)c2cnc(Nc3ccc(N4CCN(C)CC4)cc3)nc2n1-c1cccc(C(C)(C)O)n1 [AZD1775] (first compound max 1 µM, partner max 1 µM) ?
Data returned: 0.957

Now for another entry.
Data request: Give its combination Emax value. Item: CC1(C)CCC(CN2CCN(c3ccc(C(=O)NS(=O)(=O)c4ccc(NCC5CCOCC5)c([N+](=O)[O-])c4)c(Oc4cnc5[nH]ccc5c4)c3)CC2)=C(c2ccc(Cl)cc2)C1 [Venetoclax] + Cc1cc2ncnn2cc1Nc1ncc2c(n1)n(C1CCOCC1)c(=O)n2C [AZD7648] (first compound max 1 µM, 7x7, partner max 10 µM)
Data returned: 0.334

---

- System: PF-382 (T-Lymphoblastic Leukemia)
- assay.protocol: Bliss excess, mean over the matrix (fraction); higher = more synergy
Classification field: enter 1 for Bliss excess values not below 0.04, 0 for values below it.

# example entries with known answers
Data request: Please indicate if the recorded Bliss excess for Cn1cnc2c(F)c(Nc3ccc(Br)cc3Cl)c(C(=O)NOCCO)cc21 [Selumetinib] + CCN(CCO)CCCOc1ccc2c(Nc3cc(CC(=O)Nc4cccc(F)c4)[nH]n3)ncnc2c1 [AZD2811] (first compound max 10 µM, 7x7, partner max 1 µM) meets or exceeds 0.04.
Data returned: 1

Data request: Also need CN(CCO)CC[C@H](CSc1ccccc1)Nc1ccc(S(=O)(=O)NC(=O)c2ccc(N3CCC([C@@H](O)c4ccccc4-c4ccc(Cl)cc4)CC3)cc2)cc1S(=O)(=O)C(F)(F)F [AZD4320] + CN(C)CCCOc1ccc(-c2ccc3ncc4c(c3c2)n(C2CCOCC2)c(=O)n4C)cn1 [AZD0156] (first compound max 1 µM, 7x7, partner max 1 µM) , thanks.
Data returned: 0

Data request: Another compound to check: CC1(C)CCC(CN2CCN(c3ccc(C(=O)NS(=O)(=O)c4ccc(NCC5CCOCC5)c([N+](=O)[O-])c4)c(Oc4cnc5[nH]ccc5c4)c3)CC2)=C(c2ccc(Cl)cc2)C1 [Venetoclax] + C[C@@H]1COCCN1C2=NC(=NC(=C2)C3(CC3)[S@](=N)(=O)C)C4=C5C=CNC5=NC=C4 [AZD6738] (first compound max 1 µM, 7x7, partner max 10 µM)
Data returned: 0

Data request: Thanks! And COc1cccc2c1C(=O)c1c(O)c3c(c(O)c1C2=O)C[C@@](O)(C(=O)CO)C[C@@H]3O[C@H]1C[C@H](N)[C@H](O)[C@H](C)O1 [Doxorubicin] + Cc1cc2ncnn2cc1Nc1ncc2c(n1)n(C1CCOCC1)c(=O)n2C [AZD7648] (first compound max 1 µM, 7x7, partner max 10 µM) ?
Data returned: 1

Data request: // repeat for CC1(C)CCC(CN2CCN(c3ccc(C(=O)NS(=O)(=O)c4ccc(NCC5CCOCC5)c([N+](=O)[O-])c4)c(Oc4cnc5[nH]ccc5c4)c3)CC2)=C(c2ccc(Cl)cc2)C1 [Venetoclax] + COc1cc(Nc2ncc3c(n2)-c2ccc(Cl)cc2C(c2c(F)cccc2OC)=NC3)ccc1C(=O)O [Alisertib] (first compound max 1 µM, 7x7, partner max 10 µM) and report
Data returned: 1

Others:
Data request: Given CN(CCO)CC[C@H](CSc1ccccc1)Nc1ccc(S(=O)(=O)NC(=O)c2ccc(N3CCC([C@@H](O)c4ccccc4-c4ccc(Cl)cc4)CC3)cc2)cc1S(=O)(=O)C(F)(F)F [AZD4320] + C1CN(CCC1(C(=O)N[C@@H](CCO)C2=CC=C(C=C2)Cl)N)C3=NC=NC4=C3C=CN4 [Capivasertib] (first compound max 1 µM, 7x7, partner max 3 µM) , state whether its Bliss excess is at least 0.04.
Data returned: 1
